// data source = patent US20250034269A1

Target: T1, human LTBR ECD (S28-M227) N- and C-terminally extended-Fc-fusion wt kih HRYF-Avi-His biotinylated (P1AE7979) (human, UniProt P0DOX5 223-449 = IgG part, biotinylated avi tag)
T1 construct: also called hu LTBR
Assay: SPR, IgG captured;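 also: rate constants and KD obtained by fitting double-referenced sensorgrams to a 1:1 Langmuir binding model, with dissociation followed for 600 s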
quantity_kind: pKd
Just so you know, pKd here is -log10 of the concentration in molar units; reply with that number alone.

binder: P1AE9459 (antibody, human IgG1, kappa, L234A L235A, V domains shown, human IgG1 PG LALA; from transgenic rabbit immunization) VH: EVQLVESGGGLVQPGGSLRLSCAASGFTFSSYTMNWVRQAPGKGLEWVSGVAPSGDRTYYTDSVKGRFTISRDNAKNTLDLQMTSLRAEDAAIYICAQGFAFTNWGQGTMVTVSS VL: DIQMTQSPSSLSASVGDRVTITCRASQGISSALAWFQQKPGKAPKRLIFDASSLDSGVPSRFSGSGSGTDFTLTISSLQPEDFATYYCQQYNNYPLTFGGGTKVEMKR
pKd: 9.52

Next:
Please fill in: pKd reported for P1AF0064 (antibody, human IgG1, kappa, L234A L235A, V domains shown, human IgG1 PG LALA constant regions; V domains from rat immunization; also called LTBR (0064)) VH: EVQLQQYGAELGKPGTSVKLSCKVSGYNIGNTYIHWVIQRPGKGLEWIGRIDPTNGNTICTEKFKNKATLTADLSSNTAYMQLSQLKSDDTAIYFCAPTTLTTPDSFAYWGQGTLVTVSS VL: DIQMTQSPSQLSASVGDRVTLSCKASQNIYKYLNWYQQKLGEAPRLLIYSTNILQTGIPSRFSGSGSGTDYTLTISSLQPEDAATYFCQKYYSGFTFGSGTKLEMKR = 10.30
